The values you see were collected from patent US11312715B2.

test: PK test of in vivo efficacy: plasma and tumor tissue drug concentration on day 20 of the CT26 study; parameters: species or system BALB/C mice; conditions: BALB/C, mouse, oral, 50 mg/kg; Group 7, 50 mpk twice a day alone; time point 1 h; tumor tissue
Where a name gives a salt, the structure may show the parent alone.
measured-property: concentration at 1 h (µM)
One number for each entry, in µM.

So what's the measured concentration at 1 h for this one? Nc1nc(-c2ccc(F)cc2)c(-c2ccc3ncnn3c2)c2nccnc12 [Embodiment 6 hydrochloride] 3.69

* * *

test: PK test of in vivo efficacy: plasma and tumor tissue drug concentration on day 20 of the CT26 study; set-up: species or system BALB/C mice; conditions: BALB/C, mouse, plasma, po, 100 mg/kg, Group 6: 100 mg/kg once a day PO + CS1003 1 mg/kg; day 20; plasma
Structures can show the parent of a compound that is named as a salt.
measured-property: Cmax (µM)
One number for each entry, in µM.

So what's the measured Cmax for this one? Nc1nc(-c2ccc(F)cc2)c(-c2ccc3ncnn3c2)c2nccnc12 [Embodiment 6 hydrochloride] 132

* * *

experiment: PK test of in vivo efficacy: plasma and tumor tissue drug concentration on day 20 of the CT26 study; set-up: species or system BALB/C mice; conditions: BALB/c, mouse, tumor tissue / plasma, oral, 100 mpk, Group 6, 100 mpk + CS1003; time point 4 h; read-out: T/P* Ratio (tumor tissue / plasma drug concentration)
Where a name gives a salt, the structure may show the parent alone.
measured-property: Kp at 4 h
Give bare numbers.

So what's the measured Kp at 4 h for this one? Nc1nc(-c2ccc(F)cc2)c(-c2ccc3ncnn3c2)c2nccnc12 [Embodiment 6 hydrochloride] 4.2

* * *

target: Human Adenosine A2a Receptor (Homo sapiens); construct: host or cells: CHO; assay: Human adenosine A2a receptor calcium flow detection experiment (FLIPR, Fluo-4, NECA agonist); assay type: cell-based; conditions: A2a stable CHO cell line, antagonist mode vs NECA at EC80
Sequence (P29274 whole entry): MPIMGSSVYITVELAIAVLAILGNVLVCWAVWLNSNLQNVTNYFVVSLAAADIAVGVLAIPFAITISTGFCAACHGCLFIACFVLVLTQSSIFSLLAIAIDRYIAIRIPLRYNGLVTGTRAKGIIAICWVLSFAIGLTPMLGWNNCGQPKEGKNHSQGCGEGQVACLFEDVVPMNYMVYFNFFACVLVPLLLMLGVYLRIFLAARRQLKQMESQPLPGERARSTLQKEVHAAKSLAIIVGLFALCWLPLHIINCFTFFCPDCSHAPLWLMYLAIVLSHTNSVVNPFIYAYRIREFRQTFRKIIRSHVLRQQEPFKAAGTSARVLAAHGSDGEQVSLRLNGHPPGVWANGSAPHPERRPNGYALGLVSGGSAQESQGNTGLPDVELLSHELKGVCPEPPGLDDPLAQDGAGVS
Field: IC50. Provide a value for each of the molecules that follow.
Answers are plain numbers, in nM.

Recorded IC50, per entry:
So what's the measured IC50 for this one? Nc1nc(-c2ccc(F)cc2)c(-c2ccc3ncccc3c2)c2nccnc12 0.92

Next record, please: Nc1nc(-c2ccc(F)cc2)c(-c2ccc3ncnn3c2)c2ncccc12 1.56

Next record, please: Nc1nc(-c2ccc(F)cc2)c(-c2ccc3nccn3c2)c2nccnc12 0.54

Next record, please: Cc1cc(-c2c(-c3ccc(Cl)cc3)nc(N)c3nccnc23)cc(Cl)n1 3.84

// for each molecule in input: emit IC50
1. Cc1cc(-c2c(-c3ccc(F)cc3)nc(N)c3cncnc23)cc(Cl)n1
2. Nc1nc(-c2ccc(F)cc2)c(-c2ccc3ncnn3c2)c2nccnc12
3. Nc1nc(-c2ccc(F)cc2)c(-c2ccc3[nH]ncc3c2)c2nccnc12
4. Nc1nc(-c2ccc(F)cc2)c(-c2cc(Cl)nc(C(F)(F)F)c2)c2nccnc12

0.89
1.14
3.32
9.46

// for each molecule in input: emit IC50
1. Cc1cc(-c2c(-c3ccc(F)cc3)nc(N)c3ncccc23)cc(Cl)n1
2. Cn1ccc(-c2nc(N)c3nccnc3c2-c2ccc3ncnn3c2)n1
3. Nc1nc(-c2ccc(F)cc2)c(-c2cc(Cl)c3[nH]ncc3c2)c2nccnc12

1: 5.52; 2: 3.18; 3: 0.82

// for each molecule in input: emit IC50
1. Nc1nc(-c2ccc(Cl)o2)c(-c2ccc3ncnn3c2)c2nccnc12
2. Cc1cc(-c2c(-c3ccc(Cl)s3)nc(N)c3nccnc23)cc(Cl)n1
3. Cc1cc(-c2c(-c3ccc(F)cc3)nc(N)c3cccnc23)cc(Cl)n1
4. Cc1cc(-c2c(-c3ccc(F)cc3)nc(N)c3nccnc23)cc(C(F)(F)F)n1

1. 0.35
2. 24
3. 1.79
4. 9.2

// for each molecule in input: emit IC50
1. Nc1nc(-c2ccc(F)cc2)c(-c2ccc3ncsc3c2)c2nccnc12
2. Nc1ncc2cc(-c3c(-c4ccc(F)cc4)nc(N)c4nccnc34)ccc2n1
3. Cc1cc(-c2c(-c3ccc(F)cc3)nc(N)c3nccnc23)cc(Cl)n1
4. Cc1cc(-c2c(-c3ccc(C)o3)nc(N)c3nccnc23)cc(Cl)n1
5. Cc1ccc(-c2nc(N)c3nccnc3c2-c2ccc3ncnn3c2)o1
6. Nc1nc(-c2ccc(F)cc2)c(-c2ccc3nncn3c2)c2nccnc12
7. Nc1nc(-c2ccc(F)cc2)c(-c2ccc3cnccc3c2)c2nccnc12

0.95
6.1
1.73
1.03
0.58
15.6
78.8

// for each molecule in input: emit IC50
1. Nc1nc(-c2ccccc2)c(-c2ccc3ncnn3c2)c2ncccc12
2. Nc1nc(-c2ccc(F)cc2)c(-c2cc(Cl)c3ncnn3c2)c2nccnc12
3. Cc1cc(-c2c(-c3ccc(F)cc3)nc(N)c3nccnc23)cc(C)n1
4. Nc1nc(-c2ccc(F)cc2)c(-c2cc(Cl)c3ncccc3c2)c2nccnc12
5. Nc1nc(-c2ccc(F)cc2)c(-c2ccc3c(c2)CCCN3)c2nccnc12

1: 0.56; 2: 1.04; 3: 4.77; 4: 0.92; 5: 26.8
